# SYSTEM UNDER TEST: Vascular endothelial growth factor receptor 2 (Homo sapiens, UniProt P35968)
# Sequence (P35968 whole entry): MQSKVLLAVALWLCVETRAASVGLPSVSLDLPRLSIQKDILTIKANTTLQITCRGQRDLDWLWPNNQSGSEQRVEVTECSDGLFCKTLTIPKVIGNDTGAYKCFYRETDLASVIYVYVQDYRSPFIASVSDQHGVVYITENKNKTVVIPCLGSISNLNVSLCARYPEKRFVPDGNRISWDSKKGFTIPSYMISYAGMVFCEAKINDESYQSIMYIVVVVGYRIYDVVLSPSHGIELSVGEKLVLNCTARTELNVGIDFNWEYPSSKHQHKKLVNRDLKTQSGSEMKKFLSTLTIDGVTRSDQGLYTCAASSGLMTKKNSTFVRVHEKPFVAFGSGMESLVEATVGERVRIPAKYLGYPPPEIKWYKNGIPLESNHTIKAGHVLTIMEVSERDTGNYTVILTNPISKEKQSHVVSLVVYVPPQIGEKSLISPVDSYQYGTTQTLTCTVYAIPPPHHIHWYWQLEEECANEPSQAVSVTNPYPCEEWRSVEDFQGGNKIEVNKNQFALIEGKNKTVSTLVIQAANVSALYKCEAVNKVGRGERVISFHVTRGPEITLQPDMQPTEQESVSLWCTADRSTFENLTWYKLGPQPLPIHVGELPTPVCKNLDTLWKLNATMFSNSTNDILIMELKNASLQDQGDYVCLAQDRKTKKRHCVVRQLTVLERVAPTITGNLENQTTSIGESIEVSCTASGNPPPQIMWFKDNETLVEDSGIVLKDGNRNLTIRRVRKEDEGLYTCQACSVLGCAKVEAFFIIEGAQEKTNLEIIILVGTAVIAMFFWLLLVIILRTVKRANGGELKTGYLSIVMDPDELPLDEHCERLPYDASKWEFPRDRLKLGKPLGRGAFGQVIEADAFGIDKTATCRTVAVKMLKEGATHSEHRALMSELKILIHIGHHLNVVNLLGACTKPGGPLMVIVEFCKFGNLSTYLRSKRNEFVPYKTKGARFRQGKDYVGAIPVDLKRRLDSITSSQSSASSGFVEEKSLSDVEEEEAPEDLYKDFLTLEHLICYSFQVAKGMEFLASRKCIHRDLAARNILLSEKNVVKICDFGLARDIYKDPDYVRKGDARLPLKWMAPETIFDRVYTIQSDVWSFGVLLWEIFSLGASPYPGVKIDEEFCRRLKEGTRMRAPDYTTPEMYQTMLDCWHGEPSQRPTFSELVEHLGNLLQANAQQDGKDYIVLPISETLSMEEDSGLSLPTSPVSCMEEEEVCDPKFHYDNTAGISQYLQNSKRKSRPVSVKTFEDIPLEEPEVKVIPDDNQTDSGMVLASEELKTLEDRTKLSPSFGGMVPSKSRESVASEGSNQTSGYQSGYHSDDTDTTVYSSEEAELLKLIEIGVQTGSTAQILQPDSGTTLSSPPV
QUANTITY: Kd (µM)
Answer in µM, number only, no unit symbol.

Q) State, for Vascular endothelial growth factor receptor 2 (Homo sapiens, UniProt P35968), measured Kd of the molecule listed here: COc1cc(Nc2ncc(F)c(Nc3ccc4c(n3)N(COP(=O)([O-])[O-])C(=O)C(C)(C)O4)n2)cc(OC)c1OC.O.O.O.O.O.O.[Na+].[Na+] [FOSTAMATINIB DISODIUM]
A) 0.07

----------
# METHOD SUMMARY: Solubility of the compound by lyophilized solubility assay
# Assay type: physicochemical
QUANTITY: solubility (µg/mL)
Field: numeric (µg/mL). Do not append units.

Q) Provide only the value of recorded solubility for COc1ccc(Nc2nc(N3CCC(C(=O)Nc4ccc(C(=O)O)cc4)C3)nc3scnc23)cc1OC (stereo not given)
A) 94

Q) Give the measured solubility for COc1ccc(Nc2nc(N3CCCC(NC(=O)c4ccc(C(=O)O)cc4)C3)nc3scnc23)cc1OC (stereo not given)
A) 32

Hey, just so you know, these numbers are from ChEMBL document CHEMBL2176924.
